Species on record: Rattus norvegicus
Experiment: Open TG-GATES - Regimen: Single
Type: toxicity, organism-based, Sprague-Dawley
Parameters: regimen Single, gender Male, age 6 weeks
Details: in vivo, po, 0 mg/kg, 24 h, tissue Kidney, route gavage, dose level Control
Recorded KIDNEY_R by entry
Report only the number, with the unit g understood.

Answered examples (3):
CN1C(=O)OC(C)(C)C1=O: 0.9
CCSCC[C@H](N)C(=O)O: 1
CC(C)(S)[C@@H](N)C(=O)O: 0.9

Quick one: KIDNEY_R of `CCC(C)(C)C(=O)O[C@H]1C[C@@H](C)C=C2C=C[C@H](C)[C@H](CC[C@@H]3C[C@@H](O)CC(=O)O3)[C@H]21` ?
1

Next molecule: CCN1CCCC1CNC(=O)c1cc(S(N)(=O)=O)ccc1OC (stereo unspecified) [SULPIRIDE]
0.9

Another molecule: `CCc1oc2ccccc2c1C(=O)c1cc(I)c(O)c(I)c1`
1
